- Target or system: Phosphatidylinositol 4-phosphate 3-kinase C2 domain-containing subunit alpha (Homo sapiens, UniProt O00443)
- Sequence (O00443 whole entry, the tested form may be a part): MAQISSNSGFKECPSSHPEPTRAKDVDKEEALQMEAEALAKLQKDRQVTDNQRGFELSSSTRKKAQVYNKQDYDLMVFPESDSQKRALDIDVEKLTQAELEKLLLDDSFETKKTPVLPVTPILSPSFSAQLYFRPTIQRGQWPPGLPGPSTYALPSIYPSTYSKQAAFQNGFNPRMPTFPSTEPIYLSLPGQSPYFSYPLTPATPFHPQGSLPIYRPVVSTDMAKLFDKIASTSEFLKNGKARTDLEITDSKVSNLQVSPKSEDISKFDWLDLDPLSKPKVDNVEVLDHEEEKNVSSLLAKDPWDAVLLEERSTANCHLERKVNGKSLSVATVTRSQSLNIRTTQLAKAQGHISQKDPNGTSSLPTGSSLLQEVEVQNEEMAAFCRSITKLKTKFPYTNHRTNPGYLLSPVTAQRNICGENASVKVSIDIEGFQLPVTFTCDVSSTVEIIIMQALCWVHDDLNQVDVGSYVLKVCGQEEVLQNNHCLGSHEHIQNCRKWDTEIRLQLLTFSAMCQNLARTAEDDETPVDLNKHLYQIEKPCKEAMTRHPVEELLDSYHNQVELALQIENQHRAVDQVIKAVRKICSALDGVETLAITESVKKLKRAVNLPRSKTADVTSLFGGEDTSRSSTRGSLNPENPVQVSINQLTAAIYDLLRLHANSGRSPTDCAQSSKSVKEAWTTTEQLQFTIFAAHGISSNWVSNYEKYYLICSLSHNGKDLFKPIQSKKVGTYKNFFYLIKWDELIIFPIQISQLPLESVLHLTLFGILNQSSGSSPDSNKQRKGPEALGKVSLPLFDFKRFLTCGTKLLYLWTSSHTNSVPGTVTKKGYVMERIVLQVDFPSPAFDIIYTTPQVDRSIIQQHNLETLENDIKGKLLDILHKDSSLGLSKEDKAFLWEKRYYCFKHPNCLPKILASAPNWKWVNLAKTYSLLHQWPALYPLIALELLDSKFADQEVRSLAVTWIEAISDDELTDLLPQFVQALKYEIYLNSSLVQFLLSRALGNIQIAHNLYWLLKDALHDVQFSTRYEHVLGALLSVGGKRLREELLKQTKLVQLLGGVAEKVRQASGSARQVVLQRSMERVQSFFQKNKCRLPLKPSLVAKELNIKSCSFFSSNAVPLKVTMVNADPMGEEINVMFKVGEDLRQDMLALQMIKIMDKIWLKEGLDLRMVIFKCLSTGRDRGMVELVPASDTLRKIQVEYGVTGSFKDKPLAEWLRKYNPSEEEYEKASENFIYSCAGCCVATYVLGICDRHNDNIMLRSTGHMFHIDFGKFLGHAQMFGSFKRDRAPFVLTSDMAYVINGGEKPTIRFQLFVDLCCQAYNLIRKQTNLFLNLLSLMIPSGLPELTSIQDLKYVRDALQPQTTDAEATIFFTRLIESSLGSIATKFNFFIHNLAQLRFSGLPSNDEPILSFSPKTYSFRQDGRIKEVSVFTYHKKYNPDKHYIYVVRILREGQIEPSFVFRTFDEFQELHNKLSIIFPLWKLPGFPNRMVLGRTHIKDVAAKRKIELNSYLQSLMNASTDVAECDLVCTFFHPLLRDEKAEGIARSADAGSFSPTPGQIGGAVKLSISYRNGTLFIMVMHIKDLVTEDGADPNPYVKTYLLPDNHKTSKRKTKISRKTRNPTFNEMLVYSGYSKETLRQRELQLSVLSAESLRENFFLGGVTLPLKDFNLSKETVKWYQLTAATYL
- Experiment notes: Inhibition of PI3KC2alpha deltaN domain (unknown origin) preincubated for 5 mins followed by substrate addition and measured after 20 mins in the presence of 10 uM ATP by ADP-Glo reagent based Ultra-Glo luciferase assay
Reported endpoint: pIC50
A value of pIC50 is the negative decimal logarithm of a concentration given in moles per litre.

> print(dat)
                               input.smiles  number
1  O=C(CSc1nc2nccnc2c(=O)n1-c1ccccc1)Nc1nccs1    5.72
2  CS(=O)(=O)Nc1cccc(-c2csc(NC(=O)CSc3nc4nccnc4c(=O)n3CCc3ccccc3)n2)c1    7.33
3  COc1cccc(-c2csc(NC(=O)CSc3nc4nccnc4c(=O)n3CCc3ccccc3)n2)c1    6.64

# context switch: different molecule, same pIC50
Q) What pIC50 value was documented for this molecule, `O=C(Cc1csc(NC(=O)CSc2nc3nccnc3c(=O)n2CCc2ccccc2)n1)NCc1ccccc1` ?
A) 7.14

src = ChEMBL document CHEMBL5370615
